test system: KM12; test: NCI tumour cell line growth inhibition, 48 h
Active and inactive are the calls of the source. Cut-off read from the data, not from the text of the source: active = GI50 up to about 1.1 µM and inactive = higher.
Please provide measured GI50 for the entries that follow.

Lookup: Lab note: need GI50 for CCOC(=O)C(NC(=O)CC(C)C)(N1CCN(c2cc3c(cc2F)c(=O)c(C(=O)O)cn3C2CC2)CC1)C(F)(F)F (stereo not drawn) on KM12, anyone have it?
Found: 13.6 µM (inactive)

Lookup: Lab note: need GI50 for Nc1ccccc1SC(C[N+](=O)[O-])c1ccc2c(c1)OCO2 (stereo not drawn) on KM12, anyone have it?
Found: 2.44 µM (inactive)

Lookup: Lab note: need GI50 for O=C1CNS(=O)(=O)N1 on KM12, anyone have it?
Found: > 100 µM (inactive)

Lookup: Lab note: need GI50 for O=C(CCCCCC(=O)N1CC(CCl)c2ccc([N+](=O)[O-])cc21)N1CC(CCl)c2ccc([N+](=O)[O-])cc21 (stereo not drawn) on KM12, anyone have it?
Found: > 100 µM (inactive)

Lookup: Lab note: need GI50 for Cc1cc2nc(-c3cc(C(C)(C)C)c(O)c(C(C)(C)C)c3)[nH]c2cc1C on KM12, anyone have it?
Found: 3.39 µM (inactive)

Lookup: Lab note: need GI50 for NC(=O)CC1(O)C=CC(=O)C=C1 on KM12, anyone have it?
Found: > 100 µM (inactive)

Lookup: Lab note: need GI50 for c1ccc(C2N=NN(c3ccccc3)C2N2CCCCC2)cc1 (stereo not drawn) on KM12, anyone have it?
Found: > 100 µM (inactive)

Lookup: Lab note: need GI50 for C=C1CCC2C(C)(CO)C(O)CCC2(C)C1C/C=C1\C(=O)OCC1O (stereo not drawn) on KM12, anyone have it?
Found: 14.1 µM (inactive)

====

tested on: COLO 205; assay: NCI tumour cell line growth inhibition, 48 h
The source made the active and inactive calls. Rule as the data show it: active = GI50 up to about 1.1 µM and inactive = higher.
endpoint: GI50

Lookup: I am curious: what GI50 value has been reported for COCC[N+](CCNC(=O)c1cccc2c(N)c3cccc(C)c3nc12)(CCOC)Cc1ccc([N+](=O)[O-])cc1 ?
Found: 16.1 µM (inactive)

Lookup: I am curious: what GI50 value has been reported for Cc1ccccc1Nc1nc2ccccc2nc1NS(=O)(=O)c1ccccc1 ?
Found: > 100 µM (inactive)

Lookup: I am curious: what GI50 value has been reported for CN1CCN(CCCCNc2cc3c4ccccc4c(NCCCCN4CCN(C)CC4)cc3c3ccccc23)CC1 ?
Found: 2.36 µM (inactive)

Lookup: I am curious: what GI50 value has been reported for CC(=O)OCC1OC(n2c(C)cc(C)c(C#N)c2=S)C(OC(C)=O)C(OC(C)=O)C1OC(C)=O (stereo not given) ?
Found: > 100 µM (inactive)

Lookup: I am curious: what GI50 value has been reported for Nc1nnc2ccc(Cl)cc2[n+]1[O-] ?
Found: 24.4 µM (inactive)

====

Please provide measured GI50 for the entries that follow.
test system: NCI-H226; experiment: NCI tumour cell line growth inhibition, 48 h
The source made the active and inactive calls. No stated cut-off is given here; in the data, active = GI50 up to about 1.1 µM and inactive = higher.

Lookup: I am curious: what GI50 value has been reported for COC(=O)C1C(O)CCC2CN3CCc4c([nH]c5cccc(OC)c45)C3CC21 (centres undefined) ?
Found: > 100 µM (inactive)

Lookup: I am curious: what GI50 value has been reported for CC(O)(c1ccc(OCCC[N+](C)(C)C)cc1)C(C)(O)c1ccc(OCCC[N+](C)(C)C)cc1 (centres undefined) ?
Found: > 100 µM (inactive)

Lookup: I am curious: what GI50 value has been reported for O=C1Nc2ccccc2/C1=N/Nc1ccc([N+](=O)[O-])cc1[N+](=O)[O-] ?
Found: 12 µM (inactive)

Lookup: I am curious: what GI50 value has been reported for COc1ccc(C)cc1Nc1nnc(-c2ccc(N)cc2)s1 ?
Found: 44.9 µM (inactive)
